tested on: NCI/ADR-RES ovarian; experiment: NCI-60 one-dose screen, 48 h (100 = growth as untreated, 0 = no growth, -100 = all killed); conditions: 10 µM unless noted
The panel holds about 83,000 compounds, 20% with a hit somewhere; the sample as a whole holds those more often.
Listing of recorded growth by entry.
Endpoint name: growth (%)

>  <Compound>
COc1cc2c(Nc3ccc(NC(=O)Nc4ccc(Cl)c(C(F)(F)F)c4)c(Cl)c3)ncnc2cc1OCCCN1CCN(C)CC1

>  <Endpoint name>
growth

>  <Recorded value>
93.3

$$$$
>  <Compound>
CCOCc1cc(C(C)(C)C)ccc1O

>  <Endpoint name>
growth

>  <Recorded value>
103

$$$$
>  <Compound>
O=C1NN(c2ccccc2)C(c2ccc(Cl)cc2)N2CCC[C@H]12 (some centres undefined)

>  <Endpoint name>
growth

>  <Recorded value>
93.1

$$$$
>  <Compound>
C=C1C(=O)O[C@H]2[C@H]1CC/C(C=Nc1c(N)cc(F)cc1Br)=C\CC[C@@]1(C)O[C@@H]21

>  <Endpoint name>
growth

>  <Recorded value>
109

$$$$

----------
system: SK-MEL-28 melanoma; experiment: NCI-60 one-dose screen, 48 h; details: 10 µM unless noted
About 83,000 compounds went through this panel and 20% of them were active in at least one assay; those are over-represented in the sample as a whole. Activity calls are given as the source filed them. How the source made its calls: active means growth percent below 10; inactive means the rest.
Possible outcomes: Y for active, N for inactive

>  <Molecule>
CC(/C=C/c1ccccc1)=N/NC(=O)c1ccncc1

>  <Label class>
N

$$$$
>  <Molecule>
C#Cc1ccccc1NC(=O)c1sc2nc3c(cc2c1N)CCCCC3

>  <Label class>
N

$$$$
>  <Molecule>
CC(=O)OC[C@]12CC[C@@H](c3cn(Cc4ccc(Cn5cc([C@@H]6CC[C@]7(COC(C)=O)CC[C@]8(C)[C@H](CC[C@@H]9[C@@]%10(C)CC[C@H](OC(C)=O)C(C)(C)[C@@H]%10CC[C@]98C)[C@@H]67)nn5)cc4)nn3)[C@@H]1[C@H]1CC[C@@H]3[C@@]4(C)CC[C@H](OC(C)=O)C(C)(C)[C@@H]4CC[C@@]3(C)[C@]1(C)CC2

>  <Label class>
N

$$$$
>  <Molecule>
O=C(CCc1nnco1)c1nc2ccc([N+](=O)[O-])cc2[nH]1

>  <Label class>
N

$$$$
>  <Molecule>
Cc1cccc(NC(=O)c2sc3nc4c(cc3c2N)CN(Cc2ccccc2)CC4)c1C

>  <Label class>
N

$$$$
>  <Molecule>
CCO/C=N/S(=O)(=O)c1cc2c(cc1Cl)NC=NS2(=O)=O

>  <Label class>
N

$$$$
>  <Molecule>
CCN1CCN(c2ccc(NC(=O)Nc3nc4ccc(-c5ccccc5OC)cc4s3)cc2)CC1

>  <Label class>
Y

$$$$
>  <Molecule>
CCOC(=O)c1c(C)nc2c(c1N)CC(=O)N2CCc1ccccc1

>  <Label class>
N

$$$$
>  <Molecule>
OCCNc1nc(NCCO)nc(Nc2ccc(C3=NN(c4cc(Cl)cc(Cl)c4)C(c4ccc(Cl)cc4)C3)cc2)n1 (stereo unspecified)

>  <Label class>
Y

$$$$
>  <Molecule>
NC(=N\N=C\c1ccccc1O)/C(N)=N/N=C/c1ccccc1O

>  <Label class>
N

$$$$
>  <Molecule>
O=C(O)c1cc(N=Nc2ccc(-c3ccc(N=Nc4c(S(=O)(=O)O)cc5ccc(Nc6ccccc6)cc5c4O)cc3)cc2)ccc1O

>  <Label class>
N

$$$$
>  <Molecule>
C/C(=C\c1cnc(C)s1)[C@@H]1C[C@@H]2O[C@@H]2CCC[C@H](C)[C@H](O)[C@@H](C)C(=O)C(C)(C)[C@@H](O)CC(=O)O1

>  <Label class>
N

$$$$
>  <Molecule>
O=C(Nc1ccc(S(=O)(=O)NC2CCCCCC2)cc1)C(c1ccccc1)S(=O)(=O)c1ccc(F)cc1 (stereo unspecified)

>  <Label class>
Y

$$$$
>  <Molecule>
N#CC(C#N)=C1NC(c2ccccc2)=C(c2ccccc2)C(c2ccccc2Cl)=C1C#N

>  <Label class>
N

$$$$
>  <Molecule>
CCCn1c2cc(OCc3cn(-c4ccc(Cl)cc4)nn3)ccc2c2ccnc(C)c21

>  <Label class>
N

$$$$
>  <Molecule>
COc1ccc(C(=O)c2cc(OC)c(C)c(OC)c2)cc1OC(=O)CCl

>  <Label class>
N

$$$$
>  <Molecule>
COC(=O)/C=C1\SC(=Nc2ccc(C(F)(F)F)cc2)N(CCc2c[nH]c3ccccc23)C1=O

>  <Label class>
Y

$$$$
>  <Molecule>
Cc1nccc2c3ccc(OCc4cn(-c5ccc(Cl)cc5)nn4)cc3n(CC(C)C)c12

>  <Label class>
N

$$$$
>  <Molecule>
O=C1Nc2ccc(Cl)cc2/C1=N/c1nc(-c2ccc(Cl)cc2)cs1

>  <Label class>
N

$$$$
>  <Molecule>
O=c1[nH]nc(-c2ccccc2)c2sc(NC(=S)Nc3ccc(Cl)cc3)nc12

>  <Label class>
N

$$$$
>  <Molecule>
CCc1n(Cc2ccc3ccccc3c2)c2ccccc2[n+]1Cc1ccc2ccccc2c1

>  <Label class>
N

$$$$
>  <Molecule>
O=C(C[n+]1cccc2cc(Cl)ccc21)c1ccc2c(c1)CCCC2

>  <Label class>
N

$$$$
>  <Molecule>
Nc1c(C(=O)Nc2ccccn2)sc2nc3c(cc12)C(=O)CCC3

>  <Label class>
N

$$$$
>  <Molecule>
CCCCCCCc1n(Cc2ccc3ccccc3c2)c2ccccc2[n+]1Cc1ccc2ccccc2c1

>  <Label class>
Y

$$$$
>  <Molecule>
CC(=O)Nc1nc2c(c(N)c1C#N)C(c1cccc(Cl)c1)C1=C(CCCC1=O)N2c1sc2c(c1C#N)CCCC2 (stereo unspecified)

>  <Label class>
N

$$$$
>  <Molecule>
C[C@H]1[C@H](C)CC[C@]2(C(=O)OCCCC[P+](c3ccccc3)(c3ccccc3)c3ccccc3)CC[C@]3(C)C(=CC[C@@H]4[C@@]5(C)CC[C@H](OC(=O)C(Cl)Cl)C(C)(C)[C@@H]5CC[C@]43C)[C@H]12

>  <Label class>
Y

$$$$
